- target: T1, hu-CD74 antigen (R&D SYSTEMS catalog #3590-CD-050) (human, UniProt P04233-2 73-232, limits assumed)
- T1 construct: Bought antigen; also called rhCD74; human CD74
- T1 sequence (looked up): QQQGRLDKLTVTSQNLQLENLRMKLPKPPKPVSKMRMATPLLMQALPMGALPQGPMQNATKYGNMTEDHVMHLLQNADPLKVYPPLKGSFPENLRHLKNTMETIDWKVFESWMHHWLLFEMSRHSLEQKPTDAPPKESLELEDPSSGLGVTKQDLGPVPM
- experimental-protocol: SPR (Biacore T200), IgG captured on anti-human Fc, rhCD74 analyte
Entries and their measured Kd follow.
reported-endpoint: Kd (nM)

>  <binder>
HC 1251_B08 (wt)/LC 1337_A10 (g) (antibody, human IgG1, kappa, V domains shown, IgG format) VH: QVQLVESGGGVVQPGRSLRLSCAASGFNFSDYGMHWVRQAPDKGLEWVAVIWYDGSISYYADSVKGRFTISRDNSKNTLYLQMNSLRAEDTAVYYCARGGTVEHGAVYGTDVWGQGATVTVSS VL: DIQMTQSPSSVSASVGDRVTITCRASQGISSWVAWYQQKPGKAPKLLIYGSSRLQSGVPSRFSGSGSGTDFTLTISSLQPEDFATYYCQQYNTYPLTFGGGTKVEIKR

>  <measured-number>
0.957

$$$$
>  <binder>
HC 1251_A06 (wt)/LC 1337_A07 (g) (antibody, human IgG1, kappa, V domains shown, IgG format) VH: QVQLVESGGGVVQPGRSLRLSCAASGFDFSSYGMHWVRQAPDKGLEWVAVIWDDGSDRYYADSVKGRFTISRDNSKNTLYLQMNSLRAEDTAVYYCARGGTRVLGAIHGTDVWGQGTTVTVSS VL: DIQMTQSPSSVSASVGDRVTITCRASQGISSWVAWYQQKPGKAPKLLIYGASRLQSGVPSRFSGSGSGTDFTLTISSLQPEDFATYYCQQYHTYPLTFGGGTKVEIKR

>  <measured-number>
0.205

$$$$
>  <binder>
HC 1251_B08 (g)/LC 1337_A07 (g) (antibody, human IgG1, kappa, V domains shown, IgG format) VH: QVQLVESGGGVVQPGRSLRLSCAASGFNFSDYGMHWVRQAPGKGLEWVAVIWYDGSISYYADSVKGRFTISRDNSKNTLYLQMNSLRAEDTAVYYCARGGTVEHGAVYGTDVWGQGTTVTVSS VL: DIQMTQSPSSVSASVGDRVTITCRASQGISSWVAWYQQKPGKAPKLLIYGASRLQSGVPSRFSGSGSGTDFTLTISSLQPEDFATYYCQQYHTYPLTFGGGTKVEIKR

>  <measured-number>
0.239

$$$$
